- Tested on: SNB-19
- procedure_details: NCI tumour cell line growth inhibition, 48 h
Activity calls are given as the source filed them. Cut-off read from the data, not from the text of the source: active = GI50 up to about 1.1 µM and inactive = higher.
value_type: GI50

Consider the compound CC(C)CNP(=O)(NCC(C)C)Oc1ccc(CC(NC(=O)OCc2ccccc2)C(=O)OCc2ccccc2)cc1 (configuration not stated) and give its measured GI50.
25.2 µM (inactive)

Consider the compound CCOc1ccccc1N1C(=O)C(=O)C(c2nc3ccccc3s2)C(=O)C1=O and give its measured GI50.
56.5 µM (inactive)

Consider the compound CC(=O)C1=C(C)N(c2ccccc2)C2(O)C3=C(C(=O)c4ccccc4C3=O)C(O)=CC12Cl (configuration not stated) and give its measured GI50.
5.36 µM (inactive)

Consider the compound Cc1csc2nc(-c3ccncc3)cn12 and give its measured GI50.
> 100 µM (inactive)

Consider the compound CC1(C)CNC(c2ccc3c(c2)Cc2cc(C4=NC(C)(C)CN4)ccc2-3)=N1 and give its measured GI50.
35.1 µM (inactive)

Consider the compound O=c1ccc2ccc(O)cc2o1 and give its measured GI50.
> 100 µM (inactive)

Consider the compound CC1=CCC(C)=Nc2nc3ccccc3n21 and give its measured GI50.
> 100 µM (inactive)

Consider the compound C[C@@H]1CC[C@@]2(NC1)O[C@H]1C[C@H]3[C@@H]4CC[C@H]5C[C@@H](O)CC[C@]5(C)[C@H]4CC[C@]3(C)[C@H]1[C@@H]2C and give its measured GI50.
30.6 µM (inactive)

Consider the compound CC(=O)Nc1ccc(C(=O)N2N=C(C)/C(=C\c3c(O)ccc4ccccc34)C2=O)cc1 and give its measured GI50.
> 100 µM (inactive)

Consider the compound COc1ccc([N+](=O)[O-])c2c(NCC(O)CO)ccnc12 (configuration not stated) and give its measured GI50.
93.8 µM (inactive)

Consider the compound Cc1ccc(-n2c(C)n[nH]c2=O)cc1 and give its measured GI50.
> 100 µM (inactive)

Consider the compound O[C@@]12Cc3c([nH]c4ccccc34)[C@@H]3Oc4cccc5c4[C@@]31CCN(CC1CC1)[C@@H]2C5 and give its measured GI50.
33 µM (inactive)

Consider the compound O=C(O)c1nc(-c2ccccc2)[nH]c1C(=O)O and give its measured GI50.
12.5 µM (inactive)

Consider the compound COc1ccccc1-c1cc(=O)c2ccc(OC)c(OC)c2o1 and give its measured GI50.
82.2 µM (inactive)

Consider the compound COc1cc2c(cc1OC)-c1cc3ccccc3c[n+]1CC2 and give its measured GI50.
> 100 µM (inactive)

Consider the compound Cc1c(/C=N\NC(=S)N2CCN(C(=S)N/N=C\c3c(C)n(C)n(-c4ccccc4)c3=O)CC2)c(=O)n(-c2ccccc2)n1C and give its measured GI50.
47.5 µM (inactive)

Consider the compound CCO/C=C/C(C)C1(C(=O)OCC)CCCCC1=O (configuration not stated) and give its measured GI50.
> 100 µM (inactive)

----------
- Tested on: A498
- procedure_details: NCI tumour cell line growth inhibition, 48 h
Activity calls are given as the source filed them. Rule as the data show it: active = GI50 up to about 1.1 µM and inactive = higher.
Respond with a class label; see 1 (yes) (active), 0 (no) (inactive)

Status in this test for COc1ccc(/N=N/C(=N/NC(=O)c2ccc(C)cc2)c2ccc(N(CCC#N)CCC#N)cc2OC)cc1 ?
0 (no)

Status in this test for CCC(C(=O)c1cccs1)C(O)(C(F)(F)F)C(F)(F)F (configuration not stated) ?
0 (no)

Status in this test for N#Cc1nc(C#N)c(N)[nH]1 ?
0 (no)

Status in this test for Clc1ccc(/C=C/c2nc(Cl)c(-c3ccc(Cl)cc3)c(Cl)n2)cc1 ?
0 (no)

Status in this test for CC(C)c1ccccc1[S+]([O-])c1ccccc1C(C)(C)O (configuration not stated) ?
0 (no)

Status in this test for CCNc1cnc2c(n1)c(=O)n(C)c(=O)n2C ?
0 (no)

Status in this test for O=C(NN1CCCCC1)c1cc2cc(CCl)ccc2oc1=O ?
0 (no)

Status in this test for CCCCCCC(=O)c1ccc2ccccc2c1O ?
1 (yes)

Status in this test for CN1CCCc2nc3ccccc3n2C1 ?
0 (no)

Status in this test for O=Cc1ccc2c(c1)CC1(C2)Cc2ccc3c(c2C1)CCC3 (configuration not stated) ?
0 (no)

Status in this test for O=C(c1ccc([N+](=O)[O-])cc1)N1CCCC1 ?
0 (no)

Status in this test for CC(C)(CCCCC(C)(C)NCC1COc2ccccc2O1)NCC1COc2ccccc2O1 (configuration not stated) ?
0 (no)

Status in this test for CC(C)(C)OC(=O)n1c(Cl)c(C=O)c2ccccc21 ?
0 (no)

Status in this test for O=C(Cl)C1=C(c2ccccc2)C1c1ccccc1 (configuration not stated) ?
0 (no)

Status in this test for CC(=O)/N=C1\NC(=O)/C(=C/c2ccc(/C=C3/C(=O)N/C(=N\C(C)=O)N3C)cc2)N1C ?
0 (no)

Status in this test for CC1=C(N2CC2)C(=O)C(C)=C(N2CC2)C1=O ?
1 (yes)

Status in this test for COc1ccccc1-c1cc(=O)c2ccc(OC)c(OC)c2o1 ?
0 (no)

----------
Please go through the items and note down their GI50.
- Tested on: OVCAR-4
- procedure_details: NCI tumour cell line growth inhibition, 48 h
Active and inactive are the calls of the source. No stated cut-off is given here; in the data, active = GI50 up to about 1.1 µM and inactive = higher.

Consider the compound COC(=O)C(=O)C(C(=O)C(=O)Nc1cc([N+](=O)[O-])ccc1[N+](=O)[O-])c1nc2ccc(C(=O)c3ccccc3)cc2nc1O (configuration not stated) and give its measured GI50.
49.9 µM (inactive)

Consider the compound COC(=O)c1cc2c(cc1CC1Cc3cc4c(cc3C1=O)CCC4)CCC2 (configuration not stated) and give its measured GI50.
50.4 µM (inactive)

Consider the compound Cc1cccc(NC(=O)CCl)c1 and give its measured GI50.
3.29 µM (inactive)

Consider the compound O=C(C(=O)N1CC2C=CC1CC2)c1c[nH]c2ccccc12 (configuration not stated) and give its measured GI50.
> 100 µM (inactive)

Consider the compound COC(=O)CCSC(=O)Nc1ccc(/N=N/c2ccccc2)cc1 and give its measured GI50.
30.4 µM (inactive)

Consider the compound CC1=C(C(=O)OCCc2ccc([N+](=O)[O-])cc2)C(c2cccc([N+](=O)[O-])c2)C(C(=O)OC(C)C)=C(C)N1 (configuration not stated) and give its measured GI50.
> 100 µM (inactive)

Consider the compound O=C1Sc2ccccc2/C1=N/Nc1ccccc1[N+](=O)[O-] and give its measured GI50.
36.1 µM (inactive)

----------
- Test system: RPMI-8226
- procedure_details: NCI tumour cell line growth inhibition, 48 h
Calls of active or inactive are those of the source. Rule as the data show it: active = GI50 up to about 1.1 µM and inactive = higher.
Respond with a class label; see active, inactive

Status in this test for CC(C)(C)OC(=O)c1ccc(NCC2=CC(=O)C=CC2=O)cc1 ?
inactive

Status in this test for COc1ccc(C2Oc3c(c(O)cc4c3[C@H](c3ccc(O)cc3O)[C@H](O)C(c3ccc(O)c(O)c3)O4)C[C@@H]2O)cc1O (stereo partly drawn) ?
inactive

Status in this test for CC(=O)C1=C(C)N2C(=NC3=C(CCc4ccccc43)C2c2ccc(Cl)cc2)S1 (stereo not drawn) ?
inactive

Status in this test for CSc1c(C#N)c(N)nc2c(/N=N\c3ccc(Br)cc3)c(N)nn12 ?
inactive

Status in this test for CCc1n[nH]c(=O)n1-c1ccc2ccccc2c1 ?
inactive

Status in this test for CSc1ncc2c(n1)sc1c(=O)n(-c3ccccc3)cnc12 ?
inactive

Status in this test for Cc1ccc(NC(=O)COc2ccc(Cl)cc2)cc1Cl ?
inactive

Status in this test for Cc1ccc(S(=O)(=O)c2c(O)c3ccc(O)c(C)c3oc2=O)cc1 ?
inactive

Status in this test for CC(C)(C)OC(=O)n1c(Cl)c(C=O)c2ccccc21 ?
inactive

Status in this test for Clc1ccc2nc3[nH]nc(Cl)c3nc2c1 ?
inactive

Status in this test for O[C@@]1(c2cccs2)c2cccc(Cl)c2[C@](O)(c2cccs2)c2cccc(Cl)c21 ?
inactive

Status in this test for CCCCN1CCC(O)(c2cc(C(=O)O)[nH]c2-c2cc(C)no2)C1=O (stereo not drawn) ?
inactive

Status in this test for CN(CCCNC(=O)c1nn(-c2ccccc2)c2c1Cc1ccccc1-2)CCCNC(=O)c1nn(-c2ccccc2)c2c1Cc1ccccc1-2 ?
inactive

Status in this test for CC1OC(OCC2OC(Oc3ccc(C4CC(=O)c5c(O)cc(O)cc5O4)cc3O)C(O)C(O)C2O)C(O)C(O)C1O (stereo not drawn) ?
inactive

Status in this test for CCSc1[nH]c(/N=C(/NC(=O)c2ccccc2)NC(C)C)c(C(N)=O)c1C(N)=O ?
inactive

Status in this test for CC(=O)NC1C(OCC(=O)NCCNc2ccc([N+](=O)[O-])c3[nH]c4ccccc4c(=O)c23)C(O)C(CO)OC1(C)OCc1ccccc1 (stereo not drawn) ?
inactive

Status in this test for CCOC(=O)c1c(NC(=O)OC)c(C#N)c2n1CCCCC2 ?
inactive

Status in this test for COc1cc(O)cc(/C=C/c2ccc(O)cc2)c1 ?
inactive

Status in this test for O=C(CC(O)(C(F)(F)F)C(F)(F)F)c1cccs1 ?
inactive

Status in this test for CN(C)c1ccc(C(=NN)c2ccc(N(C)C)cc2)cc1 ?
active

Status in this test for O=C1Nc2ccccc2/C1=N/Nc1c(F)c(F)c(F)c(F)c1F ?
inactive

Status in this test for COc1ccccc1C1SCC(=O)N1c1ccc(-c2ccc(-n3c(-c4ccccc4)nc4ccccc4c3=O)cc2)cc1 (stereo not drawn) ?
inactive

Status in this test for Nc1ncnc2c1sc(=S)n2-c1ccccc1 ?
inactive

Status in this test for CNC1=C(C)C(=O)C2=C(C1=O)C(COC(N)=O)C1(OC)C3NC3CN21 (stereo not drawn) ?
inactive

Status in this test for CCOC(=O)C(CCSC)(CCSC)C(=O)OCC ?
inactive

Status in this test for Cn1c2ccccc2c2c3c(c4c5ccccc5n(C)c4c21)C(=O)N(c1ccccc1)C3=O ?
inactive

Status in this test for Cc1ccc(-n2c(C)n[nH]c2=O)cc1 ?
inactive

Status in this test for CC1(C)C(=O)C(C)(C)C1=S ?
inactive
